assaySystem: OsWOX13 (Oryza sativa, UniProt Q5QMM3 1-267)
Sequence: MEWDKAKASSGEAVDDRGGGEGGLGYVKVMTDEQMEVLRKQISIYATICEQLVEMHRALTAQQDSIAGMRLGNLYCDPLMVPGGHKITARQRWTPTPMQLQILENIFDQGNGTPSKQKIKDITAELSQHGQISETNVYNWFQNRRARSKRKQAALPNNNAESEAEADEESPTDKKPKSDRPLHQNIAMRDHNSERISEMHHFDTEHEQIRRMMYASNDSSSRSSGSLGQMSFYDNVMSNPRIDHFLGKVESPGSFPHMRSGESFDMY
measurementProtocol: protein-binding microarray (RPBM); PBS, 2% BSA, 51.3 ng/ul salmon testes DNA, 50 uM zinc acetate, 200 nM TF, 25 C, 1 h; high values mean tight binding
appliedConditions: protein: recombinant; tags: N-terminal polyhistidine and DsRed monomer fusion (pET32a); label: CyDye5-dUTP incorporated in the synthesized complementary strand; 3' TTTTT single-stranded linker to array surface; dsDNA, one strand shown
The full ranking holds about 35,000 sequences; the median of “fluorescence intensity (a.u.)” is about 10,000, and the highest 2% start at about 52,000. Many of the other results were omitted from the sample, so the highest values are more common in it than they were.
Item-by-item account of binding signal

{"columns": ["seq", "assaySystem", "binding signal"],
 "data": [
  ["TAAACTGATATAAGTGCCTAAATTTGGATTGAGGGTGGTGCGGAGTCACCTAGTGCAG", "OsWOX13 (Oryza sativa, UniProt Q5QMM3 1-267)", "8300 fluorescence intensity (a.u.)"],
  ["TTTGATTAATTCAGTGCTTCCTTCCCGTTACATTACACTGCGGAGTCACCTAGTGCAG", "OsWOX13 (Oryza sativa, UniProt Q5QMM3 1-267)", "54000 fluorescence intensity (a.u.)"],
  ["TAATAATTTGGGGAGCTTAATTGCTATCCAGTGATATATACGGAGTCACCTAGTGCAG", "OsWOX13 (Oryza sativa, UniProt Q5QMM3 1-267)", "11100 fluorescence intensity (a.u.)"],
  ["CAAACTAATAATTTGGCTTTTGGCTTCTGCTGAAGCAAGTCGGAGTCACCTAGTGCAG", "OsWOX13 (Oryza sativa, UniProt Q5QMM3 1-267)", "4830 fluorescence intensity (a.u.)"],
  ["AATTTGAATTTTGTTAAGTTAAATTTGATGAACTGGGGCCCGGAGTCACCTAGTGCAG", "OsWOX13 (Oryza sativa, UniProt Q5QMM3 1-267)", "5490 fluorescence intensity (a.u.)"],
  ["TTCCGGTGATTAGTCAACTGCCACGACCAGATTAATCTACCGGAGTCACCTAGTGCAG", "OsWOX13 (Oryza sativa, UniProt Q5QMM3 1-267)", "20300 fluorescence intensity (a.u.)"],
  ["GTAATTATAATAATGAGTTACTGATCGAGAGGAGGAGAGGCGGAGTCACCTAGTGCAG", "OsWOX13 (Oryza sativa, UniProt Q5QMM3 1-267)", "7580 fluorescence intensity (a.u.)"],
  ["AACGTATTTGGCCCAATTAAGTATATACATATGTAATGCGCGGAGTCACCTAGTGCAG", "OsWOX13 (Oryza sativa, UniProt Q5QMM3 1-267)", "3420 fluorescence intensity (a.u.)"],
  ["GTCATTGATTGATCAAGGGATCAATGCAAAACAACGCATTCGGAGTCACCTAGTGCAG", "OsWOX13 (Oryza sativa, UniProt Q5QMM3 1-267)", "20300 fluorescence intensity (a.u.)"]
]}

###

assaySystem: OsWOX13 (Oryza sativa, UniProt Q5QMM3 1-267)
Sequence: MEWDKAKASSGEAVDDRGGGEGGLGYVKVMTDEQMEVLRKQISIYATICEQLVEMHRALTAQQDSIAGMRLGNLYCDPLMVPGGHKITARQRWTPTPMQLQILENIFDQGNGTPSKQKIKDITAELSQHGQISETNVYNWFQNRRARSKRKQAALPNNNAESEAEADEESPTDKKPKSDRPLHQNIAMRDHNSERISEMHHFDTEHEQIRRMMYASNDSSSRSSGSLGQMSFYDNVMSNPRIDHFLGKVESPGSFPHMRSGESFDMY
measurementProtocol: protein-binding microarray (RPBM); PBS, 2% BSA, 51.3 ng/ul salmon testes DNA, 50 uM zinc acetate, 200 nM TF, 25 C, 1 h; high values mean tight binding
appliedConditions: protein: recombinant; tags: N-terminal polyhistidine and DsRed monomer fusion (pET32a); label: CyDye5-dUTP incorporated in the synthesized complementary strand; 3' TTTTT single-stranded linker to array surface; dsDNA, one strand shown
Over roughly 35,000 sequences, “fluorescence intensity (a.u.)” has its median near 10,000; the highest 2% begin near 52,000. This is one part of a sample in which the highest values are shown more often than they occur.
The entries below come with measured binding signal values attached.
resultType: binding signal

{"columns": ["seq", "resultType", "reportedMeasurement"],
 "data": [
  ["CCCAATTAATTACAATGGGCCACACGCTCGTGGCCCAACTCGGAGTCACCTAGTGCAG", "binding signal", "10900 fluorescence intensity (a.u.)"],
  ["CCCACAATTAATTGGGCCTAATGGATCGGTGCCCTTGTGGCGGAGTCACCTAGTGCAG", "binding signal", "53600 fluorescence intensity (a.u.)"],
  ["ATGATTGCTTAAGAATAATTGGTGACTTGCTACGAATGTGCGGAGTCACCTAGTGCAG", "binding signal", "51300 fluorescence intensity (a.u.)"],
  ["GTAATTGCGGCCCATTAACCTAAATGGGCCGATCGAGTGGCGGAGTCACCTAGTGCAG", "binding signal", "4580 fluorescence intensity (a.u.)"],
  ["CTCGAGGTCAAATCTTGATTAATTATGCTAATTAACGCGACGGAGTCACCTAGTGCAG", "binding signal", "16800 fluorescence intensity (a.u.)"],
  ["ATACTAATTATACGGTCACACCTATCCGTTGCATGATGCACGGAGTCACCTAGTGCAG", "binding signal", "21100 fluorescence intensity (a.u.)"],
  ["AGTATAATGACTGTTAGATCTCCATAAAACTGGCCACAAACGGAGTCACCTAGTGCAG", "binding signal", "3510 fluorescence intensity (a.u.)"],
  ["ACAATTAACTAATAATAATTAGTGATTACTTATCTTGATTCGGAGTCACCTAGTGCAG", "binding signal", "45300 fluorescence intensity (a.u.)"],
  ["GATGATGATGAGGAGGATGACCAGGATGGTGGAGACTGGGCGGAGTCACCTAGTGCAG", "binding signal", "4950 fluorescence intensity (a.u.)"]
]}

###

assaySystem: OsWOX13 (Oryza sativa, UniProt Q5QMM3 1-267)
Sequence: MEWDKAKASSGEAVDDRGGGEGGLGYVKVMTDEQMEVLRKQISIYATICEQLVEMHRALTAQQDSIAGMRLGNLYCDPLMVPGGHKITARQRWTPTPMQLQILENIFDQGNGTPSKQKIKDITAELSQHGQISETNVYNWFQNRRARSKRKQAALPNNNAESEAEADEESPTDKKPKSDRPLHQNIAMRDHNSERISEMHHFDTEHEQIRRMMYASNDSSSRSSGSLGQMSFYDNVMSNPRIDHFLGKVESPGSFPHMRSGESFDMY
measurementProtocol: protein-binding microarray (RPBM); PBS, 2% BSA, 51.3 ng/ul salmon testes DNA, 50 uM zinc acetate, 200 nM TF, 25 C, 1 h; high values mean tight binding
appliedConditions: protein: recombinant; tags: N-terminal polyhistidine and DsRed monomer fusion (pET32a); label: CyDye5-dUTP incorporated in the synthesized complementary strand; 3' TTTTT single-stranded linker to array surface; dsDNA, one strand shown
In all, about 35,000 sequences were measured (“fluorescence intensity (a.u.)”: median about 10,000, highest 2% from about 52,000 on). Only a selection was taken, and the highest values are over-represented in it overall.
resultType: binding signal

{"columns": ["seq", "resultType", "reportedMeasurement"],
 "data": [
  ["TATTGATTGATTGGTTAGTACTACAGTACTGTAGGAGTGGCGGAGTCACCTAGTGCAG", "binding signal", "64700 fluorescence intensity (a.u.)"],
  ["GCTTAATTGGTTAGTGGACTAGTATATAGTAGTACTGTATCGGAGTCACCTAGTGCAG", "binding signal", "46500 fluorescence intensity (a.u.)"],
  ["CACCATTGCATGATTGCATCTGCATCACTGCATGCCAACGCGGAGTCACCTAGTGCAG", "binding signal", "5680 fluorescence intensity (a.u.)"],
  ["CTATTGATTTCTGCTGCTACTTTTCTATACTGTATTTTGTCGGAGTCACCTAGTGCAG", "binding signal", "15500 fluorescence intensity (a.u.)"],
  ["ACTTGTATATTTGTGGATTGATACATTACATATTGATCTACGGAGTCACCTAGTGCAG", "binding signal", "5160 fluorescence intensity (a.u.)"]
]}
